# pIC50 per record follows
study_system: SMYD3 (Homo sapiens (Human))
test_description: SMYD3 cell assay (Trimethyl-MEKK2 In-Cell Western in 293T/17 cells)
Type: cell-based
study_conditions: Table 2A; read-out: SMYD3 Cell IC50
// pIC50: -log10(molar conc.)

Some molecules with recorded pIC50:
molecule: C[C@H]1CN(S(=O)(=O)N2CCNCC2)CC[C@H]1NC(=O)c1cc(C2CC2)on1
pIC50: 6.65

molecule: CNC1CCN(S(=O)(=O)N2CC[C@H](NC(=O)c3cc(C4CC4)on3)C[C@@H]2C)CC1
pIC50: 7.67

molecule: C[C@@H]1C[C@H](NC(=O)c2cc(C3CC3)on2)CCN1S(=O)(=O)CC1CCN(CCN2CCCCC2)CC1
pIC50: 6.23

molecule: C[C@H]1C[C@@H](NC(=O)c2cc(C3CC3)on2)CCN1S(=O)(=O)N1CC2CC(C1)N2
pIC50: 6.82

[in] Respond only with pIC50 recorded for C[C@H]1CN(S(=O)(=O)N2CCC(NCc3ccccc3)CC2)CC[C@H]1NC(=O)c1cc(C2CC2)on1
[out] 6.52

[in] Respond only with pIC50 recorded for CN(C)CCN(C)CCCS(=O)(=O)N1[C@@H]2CC[C@H]1C[C@@H](NC(=O)c1cc(C3CC3)on1)C2
[out] 6.48

[in] Respond only with pIC50 recorded for CC(C)N1CCC(CS(=O)(=O)N2CC[C@@H](NC(=O)c3cc(C4CC4)on3)C[C@H]2C)CC1
[out] 5.93

[in] Respond only with pIC50 recorded for C[C@@H]1C[C@H](NC(=O)c2cc(C3CC3)on2)CCN1C(=O)c1ccc(C2CCCNC2)cc1 (some centres unmarked)
[out] 6.23

[in] Respond only with pIC50 recorded for CNCCCS(=O)(=O)N1[C@@H]2CC[C@H]1C[C@@H](NC(=O)c1cc(C3CC3)on1)C2
[out] 6.82

[in] Respond only with pIC50 recorded for C[C@H]1CN(S(=O)(=O)CCCN)[C@@H](C)C[C@H]1NC(=O)c1cc(C2CC2)on1
[out] 6.48

[in] Respond only with pIC50 recorded for CC(C)N1CCC(CS(=O)(=O)N2CC[C@H](NC(=O)c3cc(C4CC4)on3)C[C@@H]2C)CC1
[out] 6.77

[in] Respond only with pIC50 recorded for CNCCN(C)CCS(=O)(=O)N1[C@@H]2CC[C@H]1C[C@@H](NC(=O)c1cc(C3CC3)on1)C2
[out] 6.47

* * *

study_system: SMYD3 (Homo sapiens (Human), UniProt Q9H7B4)
Sequence (Q9H7B4 whole entry): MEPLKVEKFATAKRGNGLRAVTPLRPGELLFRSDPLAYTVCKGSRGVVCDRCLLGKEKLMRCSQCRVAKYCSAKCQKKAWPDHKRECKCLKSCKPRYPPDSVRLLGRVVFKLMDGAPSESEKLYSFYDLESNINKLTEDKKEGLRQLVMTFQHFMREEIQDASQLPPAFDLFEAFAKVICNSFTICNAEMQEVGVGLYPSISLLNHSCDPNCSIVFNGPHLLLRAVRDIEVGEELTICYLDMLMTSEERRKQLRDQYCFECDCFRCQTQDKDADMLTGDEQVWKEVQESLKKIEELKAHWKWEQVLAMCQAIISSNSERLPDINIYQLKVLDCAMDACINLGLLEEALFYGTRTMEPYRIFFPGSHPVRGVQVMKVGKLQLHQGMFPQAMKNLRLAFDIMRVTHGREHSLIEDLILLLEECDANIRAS
test_description: SMYD3 biochemical assay (SPA, 3H-SAM methylation of MEKK2 protein substrate)
study_conditions: read-out: SMYD3 Biochem IC50 (μM)*
endpoint_label: IC50 (µM)
Answer in µM, number only, no unit symbol.

compound: C[C@@H]1CC(NC(=O)c2cc(C3CC3)on2)CCN1C(=O)CC(C)(C)CN (some centres unmarked)
unit_info: µM
IC50: 0.566
--
compound: C[C@@H]1CC(NC(=O)c2cc(C3CC3)on2)CCN1C(=O)[C@@H]1CC[C@@H](N)C1 (some centres unmarked)
unit_info: µM
IC50: 0.532
--
compound: COC(=O)C1CN(C(=O)CCCN)CC(C)C1NC(=O)c1cc(C2CC2)on1 (centres unmarked)
unit_info: µM
IC50: 5.76
--
compound: C[C@H]1C[C@@H](NC(=O)c2cc(C3CC3)on2)CCN1S(=O)(=O)c1cccc(C(N)=O)c1
unit_info: µM
IC50: 0.932

[in] Respond only with IC50 recorded for C[C@@H]1C[C@@H](NC(=O)c2cc(C3CC3)on2)CCN1C(=O)C1CCCC(CN)C1 (some centres unmarked)
[out] 1.07

[in] Respond only with IC50 recorded for CCOC(=O)C1CN(C(=O)CC2CCNCC2)CCC1NC(=O)c1cc(C2CC2)on1 (centres unmarked)
[out] 2.99

[in] Respond only with IC50 recorded for C[C@@H]1C[C@H](NC(=O)c2cc(C3CC3)on2)CCN1C(=O)CC(O)CN (some centres unmarked)
[out] 6.78

* * *

study_system: SMYD3 (Homo sapiens (Human), UniProt Q9H7B4)
test_description: SMYD3 cell assay (Trimethyl-MEKK2 In-Cell Western in 293T/17 cells)
Assay type: cell-based
study_conditions: read-out: SMYD3 Cell IC50*
# pIC50 per record follows
// pIC50: -log10(molar conc.)

structure_as_smiles: CCCN(C)C1CCN(S(=O)(=O)N2[C@@H]3CC[C@H]2C[C@@H](NC(=O)c2cc(C4CC4)on2)C3)CC1
endpoint_label: pIC50
value_reported: 7.12
--
structure_as_smiles: CCc1cc(C(=O)N[C@H]2C[C@H]3CC[C@@H](C2)N3S(=O)(=O)[C@H]2CC[C@H](N)CC2)no1
endpoint_label: pIC50
value_reported: 7.50
--
structure_as_smiles: CC(C)CCNC1CCN(S(=O)(=O)N2[C@@H]3CC[C@H]2C[C@@H](NC(=O)c2cc(C4CC4)on2)C3)CC1
endpoint_label: pIC50
value_reported: 7.23

[in] Respond only with pIC50 recorded for C[C@H]1CN(S(=O)(=O)[C@H]2CC[C@H](N)CC2)CC[C@H]1NC(=O)c1cc(C2CC2)on1
[out] 7.25

[in] Respond only with pIC50 recorded for CN1CCCC[C@@H]1CS(=O)(=O)N1[C@@H]2CC[C@H]1C[C@@H](NC(=O)c1cc(C3CC3)on1)C2
[out] 6.35

* * *

# pIC50 per record follows
study_system: SMYD3 (Homo sapiens (Human))
test_description: SMYD3 cell assay (Trimethyl-MEKK2 In-Cell Western in 293T/17 cells)
Assay type: cell-based
study_conditions: IC50 values are an average of n = 1 to n = 50; read-out: SMYD3 Cell IC50*
Experimental: Trimethyl-MEKK2-in-Cell Western Assay MEM/Glutamax medium, Optimem Reduced Serum medium, penicillin-streptomycin, 0.05% trypsin and 1×D-PBS were purchased from Life Technologies, Grand Island, N.Y., USA. […] Plasmids were prepared for delivery to cells by first mixing 1350 μL Opti-MEM with Fugene (81 μL) in a sterile Eppendorf and incubated for five minutes at room temperature (RT). […] Room temperature MEM+10% Tet system FBS was added and cells were mixed gently, and counted using the Vi-cell. […]
// pIC50: -log10(molar conc.)

Some molecules with recorded pIC50:
molecule: CC(C)(NC1CCN(S(=O)(=O)N2[C@@H]3CC[C@H]2C[C@@H](NC(=O)c2cc(C4CC4)on2)C3)CC1)c1ccccc1 [compound 978]
value_reported: 5.88
--
molecule: CN1CCC[C@H]1CS(=O)(=O)N1[C@@H]2CC[C@H]1C[C@@H](NC(=O)c1cc(C3CC3)on1)C2 [compound 979]
value_reported: 6.36
--
molecule: O=C(N[C@H]1C[C@H]2CC[C@@H](C1)N2S(=O)(=O)N1CC2CCC(C1)N2CCC(F)(F)F)c1cc(C2CC2)on1 [compound 990]
value_reported: 6.03
--
molecule: CCc1cc(C(=O)N[C@@H]2CCN(S(=O)(=O)c3ccc(C(C)(C)N)cc3)[C@@H](C)C2)no1 [compound 987]
value_reported: 6.11
--
molecule: C[C@H]1CN(S(=O)(=O)N2CC[C@H](NC(=O)c3cc(C4CC4)on3)C[C@@H]2C)[C@@H](C)CN1 [compound 992]
value_reported: 5.95

[in] Respond only with pIC50 recorded for C[C@H]1C[C@@H](NC(=O)c2cc(C3CC3)on2)CCN1S(=O)(=O)CC1CCCCN1 (some centres unmarked) [compound 989]
[out] 5.94

[in] Respond only with pIC50 recorded for C[C@H]1C[C@@H](NC(=O)c2cc(C3CC3)on2)CCN1S(=O)(=O)N1CCN(C)C[C@@H]1C [compound 980]
[out] 6.16

[in] Respond only with pIC50 recorded for O=C(N[C@H]1C[C@H]2CC[C@@H](C1)N2S(=O)(=O)[C@H]1CCCN(CCO)C1)c1cc(C2CC2)on1 [compound 985]
[out] 6.15

[in] Respond only with pIC50 recorded for C[C@H]1C[C@@H](NC(=O)c2cc(C3CC3)on2)CCN1S(=O)(=O)N1CCC(NC(C)(C)c2ccccc2)CC1 [compound 972]
[out] 5.90

[in] Respond only with pIC50 recorded for CCC[C@H]1C[C@@H](NC(=O)c2cc(C3CC3)on2)CCN1S(=O)(=O)CC1CCN(C)CC1 [compound 991]
[out] 5.66

[in] Respond only with pIC50 recorded for CC(C)Cc1cc(C(=O)N[C@H]2C[C@H]3CC[C@@H](C2)N3S(=O)(=O)CC2CCN(C)CC2)no1 [compound 993]
[out] 5.56

[in] Respond only with pIC50 recorded for C[C@H]1C[C@@H](NC(=O)c2cc(C3CC3)on2)CCN1S(=O)(=O)N1CCNC[C@@H]1c1ccccc1 [compound 984]
[out] 5.73

[in] Respond only with pIC50 recorded for CN1CCC[C@@H]1CS(=O)(=O)N1[C@@H]2CC[C@H]1C[C@@H](NC(=O)c1cc(C3CC3)on1)C2 [compound 969]
[out] 6.36

[in] Respond only with pIC50 recorded for CC(C)C1CNCCN1S(=O)(=O)N1CC[C@H](NC(=O)c2cc(C3CC3)on2)C[C@@H]1C (some centres unmarked) [compound 975]
[out] 6.04
